# Experimental system: anti-CD28 Fab (SEQ ID NOs: 202, 203)
# Sequence (VH, as listed by the source, chain 1 of 2): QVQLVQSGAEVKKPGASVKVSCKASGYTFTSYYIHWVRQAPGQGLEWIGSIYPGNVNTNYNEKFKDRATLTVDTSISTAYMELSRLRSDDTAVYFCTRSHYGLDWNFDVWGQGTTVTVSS
# Sequence (VL, as listed by the source, chain 2 of 2): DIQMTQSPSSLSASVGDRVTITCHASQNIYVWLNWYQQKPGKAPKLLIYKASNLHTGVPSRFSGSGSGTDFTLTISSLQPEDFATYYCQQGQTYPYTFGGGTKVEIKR
# Assay notes: phage ELISA, Fab on plate;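 also: ELISA of crude clonal phage supernatants on the plate, wells preloaded with CD28 antigen or only blocking buffer, captured phage read out via HRP-linked anti-M13 antibody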
Endpoint label: Anti-CD28 Fab signal

See these solved cases before continuing.
Binder | Anti-CD28 Fab signal
TCSAGAHYSWPKCF [Phage-1159] | 1.33
LCAAGAAWEWPMCF [Phage-1167] | 1.3
QCSAGATYAWPFCL [Phage-1168] | 1.29

Moving on to the next binder.
Query: Tell me Anti-CD28 Fab signal reported for TCAAGAMYQWPECF [Phage-1110]
Result: 1.48
